Test system: Resistant SNU601 cells (acquired niraparib resistance)
PROCEDURE_SUMMARY: 6-day proliferation, nuclei count, PARP inhibitor resistant line
Type: cell-based, human
ASSAY_CONDITIONS: Homo sapiens, SNU-601, 144 h; Resistant SNU601, 6 days; read-out: IC50 inhibition of proliferation
EXPERIMENTAL_ENDPOINT: IC50 (µM)
One number for each entry, in µM.

Prompt: I have this compound here, NC(=O)c1cccc2cn(-c3ccc([C@@H]4CCCNC4)cc3)nc12 [Niraparib, niraparib, reference compound] , and I need its recorded IC50.
Response: 3.5

* * *

Test system: OCM.246 cells
PROCEDURE_SUMMARY: 6-day proliferation of patient-derived ovarian cancer model, nuclei count
Type: cell-based, human
ASSAY_CONDITIONS: Homo sapiens, 144 h, read-out: IC50 inhibition of proliferation
EXPERIMENTAL_ENDPOINT: IC50 (nM)
One number for each entry, in nM.

Prompt: I have this compound here, [2H]C([2H])(c1cnn(C)c1)N1C(=O)c2cc(S(=O)(=O)NC3(C)CC3)ccc2N2C1=NC[C@H]2C , and I need its recorded IC50.
Response: 162

* * *

Tested on: HCC1954 cells
PROCEDURE_SUMMARY: 6-day growth assay, Compound 1 in combination with exatecan
Format: cell-based
ASSAY_CONDITIONS: Homo sapiens, exatecan 0.03 nM
EXPERIMENTAL_ENDPOINT: pIC50
Answers are plain numbers, as −log10 of the molar value.

Prompt: I have this compound here, [2H]C([2H])(c1cnn(C)c1)N1C(=O)c2cc(S(=O)(=O)NC3(C)CC3)ccc2N2C1=NC[C@H]2C , and I need its recorded pIC50.
Response: 5.18

* * *

Test system: GP2D cells
PROCEDURE_SUMMARY: 6-day growth assay, Compound 1 in combination with exatecan
Format: cell-based, human
ASSAY_CONDITIONS: Homo sapiens, GP2d, exatecan 30 nM
EXPERIMENTAL_ENDPOINT: pIC50
Numbers only, as −log10 of the molar value.

Prompt: I have this compound here, [2H]C([2H])(c1cnn(C)c1)N1C(=O)c2cc(S(=O)(=O)NC3(C)CC3)ccc2N2C1=NC[C@H]2C , and I need its recorded pIC50.
Response: 5.27

* * *

Test system: OVCAR3 cells
PROCEDURE_SUMMARY: 6-day growth assay, Compound 1 in combination with camonsertib
Format: cell-based
ASSAY_CONDITIONS: Homo sapiens, OVCAR-3, 144 h, camonsertib 0.32 nM, read-out: Compound 1 IC50, 6-Day Nuclei Count
EXPERIMENTAL_ENDPOINT: pIC50
Answers are plain numbers, as −log10 of the molar value.

Prompt: I'm curious: which pIC50 was measured for [2H]C([2H])(c1cnn(C)c1)N1C(=O)c2cc(S(=O)(=O)NC3(C)CC3)ccc2N2C1=NC[C@H]2C tested on OVCAR3 cells?
Response: 4.36

* * *

SUBJECT_OF_TEST: human recombinant PARG (Homo sapiens, UniProt Q86W56)
Construct: Human PARG (amino acids 389-976; Uniprot ID Q86W56-1); 6xHis (N, cleaved yes); TEV cleavage site (N, cleaved yes); PARP1 substrate: High Five insect cells (baculovirus)
Sequence (Q86W56 389-976): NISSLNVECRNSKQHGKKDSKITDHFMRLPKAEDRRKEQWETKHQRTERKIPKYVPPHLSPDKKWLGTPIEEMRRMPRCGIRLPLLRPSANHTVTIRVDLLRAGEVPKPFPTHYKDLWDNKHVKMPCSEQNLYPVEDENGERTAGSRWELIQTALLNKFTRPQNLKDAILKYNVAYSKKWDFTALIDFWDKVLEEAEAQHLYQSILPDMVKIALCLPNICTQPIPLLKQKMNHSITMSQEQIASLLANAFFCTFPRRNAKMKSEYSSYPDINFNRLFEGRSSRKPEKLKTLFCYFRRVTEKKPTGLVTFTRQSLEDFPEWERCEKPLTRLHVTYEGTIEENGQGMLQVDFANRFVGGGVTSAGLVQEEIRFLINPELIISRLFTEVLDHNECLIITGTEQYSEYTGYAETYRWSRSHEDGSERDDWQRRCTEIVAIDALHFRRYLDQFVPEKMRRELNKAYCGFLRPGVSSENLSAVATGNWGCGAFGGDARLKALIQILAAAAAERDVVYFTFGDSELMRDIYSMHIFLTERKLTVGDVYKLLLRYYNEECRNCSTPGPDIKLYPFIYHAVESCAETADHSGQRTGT
PROCEDURE_SUMMARY: HTRF assay of PARG enzymatic activity with PARylated-PARP1 substrate
ASSAY_CONDITIONS: geometric mean, n=14
EXPERIMENTAL_ENDPOINT: IC50 (µM)
Answers are plain numbers, in µM.

Prompt: I have this compound here, [2H]C([2H])(c1cnn(C)c1)N1C(=O)c2cc(S(=O)(=O)NC3(C)CC3)ccc2N2C1=NC[C@H]2C [Compound 1] , and I need its recorded IC50.
Response: 0.085
